Kindly state protein stability index for each of the entries shown.
B1: SNAP91 (parent)
chain: FAAPSPATTASPAKVDSSGVIDLF

Variants of: B1
Assay: protein stability index of a GFP-peptide fusion (GPS, HEK-293T) (PSI 1-6); higher = more stable;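 further: lentivirally expressed fusions sorted by FACS into six bins by GFP to DsRed ratio, PSI derived from sequencing read proportions per bin multiplied by bin number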
Conditions: c terminus: a fixed tail appended
Answers are plain numbers.

1) D16V
2.3
2) S18H
2.12

Look at each variant and report its protein stability index.
1. P6T
2. P4M
3. V20W
4. A10M
5. T8F

[2.23, 2.18, 1.54, 2.24, 1.33]
